Where these numbers come from: paper PMC5697452

- assay_target: UniProtKB P14780
- Sequence (P14780 20-707 limits assumed): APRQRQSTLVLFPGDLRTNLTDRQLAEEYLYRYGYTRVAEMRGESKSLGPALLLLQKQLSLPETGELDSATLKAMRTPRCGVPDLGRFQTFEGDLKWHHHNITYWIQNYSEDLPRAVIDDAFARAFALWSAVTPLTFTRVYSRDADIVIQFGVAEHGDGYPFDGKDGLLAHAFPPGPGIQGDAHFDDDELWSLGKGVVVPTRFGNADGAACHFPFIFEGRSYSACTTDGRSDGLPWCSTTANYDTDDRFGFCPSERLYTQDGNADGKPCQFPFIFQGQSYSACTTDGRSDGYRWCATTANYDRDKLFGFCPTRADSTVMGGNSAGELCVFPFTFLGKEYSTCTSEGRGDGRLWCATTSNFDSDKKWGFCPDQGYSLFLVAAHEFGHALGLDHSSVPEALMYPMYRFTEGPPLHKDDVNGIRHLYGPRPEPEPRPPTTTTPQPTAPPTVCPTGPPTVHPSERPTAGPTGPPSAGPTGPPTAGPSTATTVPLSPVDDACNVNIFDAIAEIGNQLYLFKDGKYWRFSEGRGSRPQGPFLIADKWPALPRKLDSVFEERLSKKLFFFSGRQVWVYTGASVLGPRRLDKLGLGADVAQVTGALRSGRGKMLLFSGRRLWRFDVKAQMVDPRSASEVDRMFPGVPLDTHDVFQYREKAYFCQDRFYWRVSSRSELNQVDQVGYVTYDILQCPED
- test_description: Tryptophan fluorescence blue-shift binding assay with proMMP-9
- experimental_conditions: tryptophan fluorescence, purified recombinant proMMP-9 0.5 μM, TNC buffer pH 7.5

[
  {
    "input_smiles": "O=C(CCCSc1nc2c(c(=O)[nH]1)CCCC2)Nc1ccc(F)cc1",
    "Kd / nM": 320
  }
]
